measurementNotes: Fraction unbound in baboon plasma
Format: ADME, cell-free
cond: papio anubis

# smilesCode, fraction unbound
rows = [
    ("COc1ccccc1[C@@]1(N2C[C@H](O)C[C@H]2C(=O)N(C)C)C(=O)N(S(=O)(=O)c2ccc(O[11CH3])cc2OC)c2ccc(Cl)cc21", 0.0254),
]

====

measurementNotes: Metabolic stability in baboon blood at 2.5+/-0.8 mCi, iv after 10 mins
Assay type: ADME, organism-based
cond: papio anubis, read-out: Stability

# smilesCode, remaining at 10 min [%]
data = [
    ("COc1ccccc1[C@@]1(N2C[C@H](O)C[C@H]2C(=O)N(C)C)C(=O)N(S(=O)(=O)c2ccc(O[11CH3])cc2OC)c2ccc(Cl)cc21", 50),
]

====

measurementNotes: Octanol/water partition coefficient, log D of the compound
Assay type: physicochemical

# smilesCode, logD
measured = [
    ("COc1ccccc1[C@@]1(N2C[C@H](O)C[C@H]2C(=O)N(C)C)C(=O)N(S(=O)(=O)c2ccc(O[11CH3])cc2OC)c2ccc(Cl)cc21", 3.22),
]
